B1: C20orf112 (parent)
chain: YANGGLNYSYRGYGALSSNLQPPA

- Variants of: B1
- assayRemarks: protein stability index of a GFP-peptide fusion (GPS, HEK-293T) (PSI 1-6); higher = more stable;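 further: lentivirally expressed fusions sorted by FACS into six bins by GFP to DsRed ratio, PSI derived from sequencing read proportions per bin multiplied by bin number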
- experimentalContext: c terminus: a fixed tail appended
Tick 1 (yes) if protein stability index is 2 or greater. Tick 0 (no) if protein stability index is less than 2.

mutationLabel: S9E
label: 0 (no)

mutationLabel: S9Y
label: 0 (no)

mutationLabel: R11G
label: 1 (yes)

mutationLabel: P23W
label: 1 (yes)

mutationLabel: A24W
label: 0 (no)

mutationLabel: S18P
label: 1 (yes)

mutationLabel: G14R
label: 1 (yes)

mutationLabel: A15K
label: 1 (yes)

mutationLabel: S9C
label: 0 (no)

mutationLabel: Q21S
label: 1 (yes)

mutationLabel: A24T
label: 1 (yes)

mutationLabel: G14H
label: 1 (yes)

mutationLabel: L6F
label: 1 (yes)

mutationLabel: Y8F
label: 0 (no)

mutationLabel: S18K
label: 0 (no)

mutationLabel: A15T
label: 1 (yes)

mutationLabel: S17L
label: 0 (no)

Recorded values, source the supplement of paper PMC10567573.
